- Tested on: RPMI-8226 leukemia
- ASSAY METHOD TEXT: NCI-60 one-dose screen, 48 h (100 = growth as untreated, 0 = no growth, -100 = all killed)
- CONDITION SET: 10 µM
About 83,000 compounds went through this panel and 20% of them were active in at least one assay; those are over-represented in the sample as a whole.
The label label 1 is reserved for growth strictly under 70%; label 0 covers values equal to or above it.

Worked set:
>>> print(df.to_string())
                                   compound  answer_label
0  Cc1c(NCC(=O)Nc2nc3ccccc3[nH]2)c(=O)n(-c2ccccc2)n1C       label 0
1  O=C(N/N=C/c1ccc(OC(F)F)c(OC2CCCC2)c1)c1cnn2c1NC(c1ccccc1)C2 (stereo not given)       label 0
2  COc1cc(/C=C2\C(=O)N(c3c(Cl)cccc3Cl)c3ccccc32)cc(OC)c1O       label 1
3  O=C1Nc2ccc(Cl)cc2/C1=N/N=C(c1ccccc1)c1ccccc1       label 0

**Q:** Find out if reported growth for `CC(=O)OC[C@H](O)[C@@]1(O)CC[C@H]2[C@@H]3CCC4=CC(=O)CC[C@]4(C)[C@H]3[C@@H](O)C[C@@]21C` is less than 70%
**A:** label 0
